Hi there, I'd appreciate the recorded koff for every entry that follows.
- ASSAY SYSTEM: T1, myotoxin II from Bothrops asper (Bothrops asper, UniProt P24605)
- T1 construct: also called Mt; M2; source: purified from Bothrops asper venom (CM-Sephadex C25, RP-HPLC), biotinylated
- T1 sequence (P24605 17-137): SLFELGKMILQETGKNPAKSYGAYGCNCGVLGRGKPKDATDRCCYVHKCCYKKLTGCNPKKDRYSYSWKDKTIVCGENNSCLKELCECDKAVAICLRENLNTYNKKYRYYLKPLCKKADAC
- PROTOCOL TEXT: BLI; […]) biosensors ([…] (0, 1, 10, 100 nM; […]
- EXPERIMENTAL CONDITIONS: both partners purified
Numbers only, in s⁻¹.

Look over these answered cases.
TPL0039_05_E02 Fab (Fab, V domains shown, also called Fab E02; source: Expi293F, transient expression, purified (anti-CH1 resin, desalted into PBS)) VH: QVQLLESGGGLVQPGRSLRLSCAASGFTFSSYGLHWVRQAPGKGLEWVAVISYDGSNKYYADSVKGRFTISRDNSKNTLYLQMNSLRAEDTAVYYCASTLQQLDAFDIWGQGTLVTVSS VL: NFMLTQPHSVSESPGKTVTISCTRSSGSIASNYVQWYQQRPGTSPTIMIYEDNQRPSGVPDRFSGAIDSSSNSASLTISGLKTEDEADYYCQSYDSSSVVFGGGTKVTVL ... 0.000872
TPL0039_05_F04 IgG1 (LALA + YTE) (antibody, V domains shown, also called F04(LALA + YTE); copies: 2 + 2) VH: QVQLVESGGGVVQPGRSPRLSCAASGFTFSSYGMHWVRQAPGKGLEWVAVISYDGSNKYYADSVKGRFTISRDNSKNTLYLQMNSLRAEDTAVYYCAKDLEYSSSSWGQGTLVTVSS VL: NFMLTQPHSVSESPGKTVTISCTRSSGSIASNYVQWFQQRPGSSPTTVIYEDDQRPSGVPDRFSGSIDSSSNSASLTISGLKTEDEATYFCQSYDSSTVVFGGGTKVTVL ... 1.31e-05

Req: What does the record list as koff for TPL0039_05_B04 IgG1 (LALA + YTE) (antibody, V domains shown, also called B04(LALA + YTE); copies: 2 + 2) VH: EVQLLESGGGVVQPGRSLRLSCAASGFTFSSYGMHWVRQAPGKGLEWVAVISYDGSNKYYADSVKGRFTISRDNSKNTLYLQMNSLRAEDTAVYYCARVGENEAFDIWGQGTMVTVSS VL: NFMLTQPHSVSESPGKTVTISCTRSSGSIARNYVQWYQQRPGSAPTTVIYEDNQRPSGVPDRFSGSIDSSSNSASLTISGLKTEDEADYYCQSYDSSTVVFGGGTKLTVL ?
Resp: 6.53e-05

Cited source for all entries: paper PMC10791742
